All figures here come from the supplement of paper PMC10567573.

B1: SOAT2 (parent)
chain: SLGKQKVFIIRKSLLDELMEVQHF

variants of: B1; assay: protein stability index of a GFP-peptide fusion (GPS, HEK-293T) (PSI 1-6); higher = more stable; settings: c terminus: a fixed tail appended;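 also: lentivirally expressed fusions sorted by FACS into six bins by GFP to DsRed ratio, PSI derived from sequencing read proportions per bin multiplied by bin number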
Respond with 1 (yes) for protein stability index values of 2 and above, 0 (no) for values below.

Example results:
- G3R: 1 (yes)
- V7L: 1 (yes)
- D16A: 0 (no)

Kindly review the next variant as well.
Evaluate M19V : protein stability index at minimum 2? 0 (no)
